target: T1, recombinant human FasR (Homo sapiens, UniProt P25445); assay: SPR; BIAcore T100; low density IgG-coated chip surface, recombinant human FasR; 1:1 Langmuir model; at least in duplicate; conditions: both partners purified
T1 construct: Fas receptor (FasR, CD95), human, recombinant; The FasR of the BLI and SPR experiments; Details are in Supplementary Protocols 8-10; also called recombinant FasR
T1 sequence (P25445 26-335): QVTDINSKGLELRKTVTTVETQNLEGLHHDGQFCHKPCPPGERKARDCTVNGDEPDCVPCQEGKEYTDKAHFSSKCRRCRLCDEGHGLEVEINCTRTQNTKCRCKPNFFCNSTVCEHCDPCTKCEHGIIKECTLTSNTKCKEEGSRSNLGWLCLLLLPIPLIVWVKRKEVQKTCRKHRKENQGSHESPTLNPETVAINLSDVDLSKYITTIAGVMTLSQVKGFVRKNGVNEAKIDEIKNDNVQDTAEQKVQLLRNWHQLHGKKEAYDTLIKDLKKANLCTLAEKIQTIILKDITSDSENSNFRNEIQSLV
measured_quantity: koff (s⁻¹)
Note: unit s⁻¹ is implicit; provide only the numeric part.

Please review the following examples before continuing.
binder="Ep6b_B01 IgG (antibody, V domains shown, numbers count on: Kabat numbering; IgG heavy constant region; light constant region; IgG) VH: QLQLQESGPGLVKPSETLSLTCTVSGASISANSYYGVWVRQSPGKGLEWVGSIAYRGNSNSGSTYYNPSLKSRATVSVDSSKNQVSLRLTSVTAADTALYYCARRQLLDDGTGYQWAAFDVWGQGTMVTVSS VL: QSVLTQPPSVSEAPRQTVTISCSGNSSNIGRYPVNWYQQLPGKAPKLLIYSDNLRFSGVPDRFSGSKSGTTASLAIRDLLSEDEADYYCSTWDDTLEGWVFGGGTKVTVL" reported_measurement=4.4e-05
binder="R4aS IgG (antibody, V domains shown, numbers count on: Kabat numbering; IgG heavy constant region; light constant region; IgG; also called antibody R4aS) VH: QLQLQESGPGLVKPSETLSLTCTVPGASISANSYYGVWVRQSPGKGLEWVGSIAYRGNSNSGSTYYNPSLKSRATVSVDTSKNQVSLRLTSVTAADTALYYCARRQLLDDGTGYQWAAFDNWDQGTMVTVSS VL: QSVLTQPPSVSEAPRQTVTISCSGNSFNTGRYPVNWYQQLPGKAPKLLIYSNNLRLSGVSDRFSGSKSGTSASLAIRDLLSEDEADYYCSTWDDTLEGWVFGGGTKVTVL" reported_measurement=3.8e-05
binder="A07a IgG (antibody, V domains shown, numbers count on: Kabat numbering; IgG heavy constant region; light constant region; IgG made from the scFv A07a) VH: QLQLQESGPGLVKPSETLSLTCTVPGASISANSYYGVWVRQSPGKGLEWVGSIAYRGNSNSGSTYYNPSLKGRATVSVDTSKNQVSLRLTSVTAADTALYYCARRQLLDDGTGYQWAAFDNWDQGTMVTVSS VL: QSVLTQPPSVSEAPRQTVTISCSGNSFNIGRYPVNWYQQLPGKAPKLLIYSNNLRFSGVSDRFSGSKSGTSASLAIRDLLSEDEADYYCSTWDDTLKGWVFGGGTKVTVL" reported_measurement=6.7e-05

For the next question, use this binder.
koff reading for E09 IgG (antibody, V domains shown, VH: as the VH of m6 (E09); IgG heavy constant region; VL: as the VL of m6 (E09); light constant region; IgG; also called parent) VH: QLQLQESGPGLVKPSETLSLTCTVSGASISANSYYGVWVRQSPGKGLEWVGSIAYRGNSNSGSTYYNPSLKSRATVSVDTSKNQVSLRLTSVTAADTALYYCARRQLLDDGTGYQWAAFDVWGQGTMVTVSS VL: QSVLTQPPSVSEAPRQTVTISCSGNSFNIGRYPVNWYQQLPGKAPKLLIYYNNLRFSGVSDRFSGSKSGTSASLAIRDLLSEDEADYYCSTWDDTLKGWVFGGGTKVTVL : 0.00239
